# reported Percent cleavage; entries follow
target: AxCT mask27 EGFR EH104 L070 version 1
parameter: Percent cleavage

INSERT INTO measurements (protein, reading) VALUES
  ('MMP-12 (protein) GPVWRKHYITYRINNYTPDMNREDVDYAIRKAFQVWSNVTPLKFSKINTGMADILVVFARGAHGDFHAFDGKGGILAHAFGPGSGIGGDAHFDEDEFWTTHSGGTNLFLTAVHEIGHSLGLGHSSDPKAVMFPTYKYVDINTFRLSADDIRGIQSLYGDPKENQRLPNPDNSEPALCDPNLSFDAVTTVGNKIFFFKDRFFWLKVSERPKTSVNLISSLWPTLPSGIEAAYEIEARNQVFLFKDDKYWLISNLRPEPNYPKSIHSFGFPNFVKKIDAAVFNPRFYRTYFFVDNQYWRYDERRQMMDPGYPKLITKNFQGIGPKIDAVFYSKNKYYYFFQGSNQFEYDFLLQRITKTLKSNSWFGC', '19%'),
  ('MMP-1 (protein) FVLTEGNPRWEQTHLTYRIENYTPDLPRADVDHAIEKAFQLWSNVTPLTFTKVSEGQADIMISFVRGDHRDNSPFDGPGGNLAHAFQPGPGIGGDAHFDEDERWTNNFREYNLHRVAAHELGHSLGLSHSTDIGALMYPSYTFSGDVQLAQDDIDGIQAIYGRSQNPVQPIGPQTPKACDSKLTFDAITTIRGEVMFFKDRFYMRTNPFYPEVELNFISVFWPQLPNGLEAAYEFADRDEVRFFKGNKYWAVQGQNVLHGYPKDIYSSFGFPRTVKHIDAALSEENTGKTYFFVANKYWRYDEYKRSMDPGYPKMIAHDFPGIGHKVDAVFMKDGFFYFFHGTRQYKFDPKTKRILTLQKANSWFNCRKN', '0%');

The values you see were collected from patent US20240336909.
